Some binders, each annotated with its measured Max. Activity (fold over background).
# TESTED_TARGET: Vg5/Vd2 T cell receptor expressed on SKW3 cells (UniProt A0JD36)
# Sequence (A0JD36 20-115): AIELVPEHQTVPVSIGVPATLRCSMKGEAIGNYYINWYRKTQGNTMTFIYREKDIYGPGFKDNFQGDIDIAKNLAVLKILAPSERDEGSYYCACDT
# TEST_DESCRIPTION: flow cytometry, dose-response binding at 37 C, SKW3 cells expressing Vg5/Vd2

Answered examples (2):
>>> experimental_result("VG9B208 (antibody, human IgG1, lambda, V domains shown) VH: QVQLQESGPGLVKPSETLSLTCTVSGGSISGYYWSWIRQPPGKGLELIGYIFYSGSINYNPSLKNRVTISLDTSKNQFSLKLTSVTAADTAVYYCARVGKWELRSSFDIWGQGTMVTVSS VL: QSVLTQPPSVSAAPGQKVTISCSGSTSNIGNNDVSWYQQLPGTAPKLLIYDNNKRPSGIPDRFSGSKSGTSATLGITGLQTGDEADYYCGTWDSSLSVWVFGGGTKLTVLG")
203
>>> experimental_result("VG9B372 (antibody, human IgG1, kappa, V domains shown) VH: QVQLQESGPGLVKPSQTLSLTCTVSGGSISNGGFYWSWIRQHPGKGLEWLGYINYSGSTYYNPSLESRGTISLDTSKNQFSLKLRSVTAADTAVYYCARDRNYEWNFDLWGRGTLVTVSS VL: EIVMTQSPATLSLSPGEGATLSCRASQSVSSYLAWYQQKPGQAPRLLVYDASNRATGIPARFSGSGSGTAFTLTITSLEPEDFVVYYCQQRSNWPLTFGGGTKLEIKR")
171

Shift focus to the following entry.
Problem: For VG9B114 (antibody, human IgG1, kappa, V domains shown) VH: EVQLVESGGDLVQPGGSLRLSCAASGFTFSRYDMHWVRQATGKGLEWVSAIGSAGDTYYPGSVKGRFTISRENAKNSLYLQMNSLRAGDTAVYYCARGKWELRDAFDIWGQGTMVTVSS VL: DIVMTQSPSFLSASVGDRVTITCRASQGIHSYLAWYQQKPGKAPKLLIYVASTLQSGVPSRFSGSRSGTEFTLTISSLQPEDFATYYCQQLNSYPYTFGQGTKLEIKR , write its Max. Activity (fold over background).
Solution: 226
